Values were extracted from ChEMBL document CHEMBL5137017.

Assay: Half life in Beagle dog at 6 mg/kg, po measured upto 24 hrs using crystalline form of sample by LC-MS/MS analysis
Format: ADME, organism-based, Canis lupus familiaris
Details: in vivo
Measured Parameter: half-life (h)
All answers are understood in h, so give the number only.

**Query** # lookup: half-life of `C[C@H]1OC(=O)N(c2nc(-c3cnc(N)nc3C(F)(F)F)cc(N3CCOCC3)n2)[C@H]1CO`
**Result** 12.9

###

Assay: Half life in OF1 mouse at 10 mg/kg,po or 3 mg/kg,iv measured upto 24 hrs by LC-MS/MS analysis
Format: ADME, organism-based
Settings: in vivo
Measured Parameter: half-life (h)
Output spec: scalar in h, unitless text.

**Query** Entry `C[C@H]1OC(=O)N(c2nc(-c3cnc(N)nc3C(F)(F)F)cc(N3CCOCC3)n2)[C@H]1CO` has what half-life?
**Result** 2
